Some compounds, each annotated with its measured Change.
Test system: Canis familiaris
test_name: In vivo percent change in canine mean arterial blood pressure (MABP) at 30 ug/Kg/min.
Assay type: functional, Canis lupus familiaris
Square brackets hold non-standard residues; d marks the D form. Peptide text beside a SMILES is read from it. * marks the point of attachment. ξ: configuration not given here. Butanoyl(4-(4-HOPh)) = O=C(CCCc1ccc(O)cc1)*; ξαMeY = CC(N)(Cc1ccc(O)cc1)C(=O)O; ξαMeF = CC(N)(Cc1ccccc1)C(=O)O; Bz = O=C(c1ccccc1)*
measured_attribute: Change (%)

compound | measured_attribute | measurement
O=C(NCC(=O)N1CCC[C@H]1C(=O)O)[C@@H](Cc1ccccc1)NC(=O)[C@@H]1CCCN1C(=O)CCCc1ccc(O)cc1 ({Butanoyl(4-(4-HOPh))}-P[dF]GP-OH) | Change | -1
O=C(NCC(=O)N1CCC[C@H]1C(=O)O)[C@H](Cc1ccccc1)NC(=O)[C@@H]1CCCN1C(=O)CCCc1ccc(O)cc1 ({Butanoyl(4-(4-HOPh))}-PFGP-OH) | Change | -1
Cl.Cl.NCCCNC(=O)[C@H](Cc1ccccc1)NC(=O)[C@@H]1CCCN1 | Change | 0
COc1ccc(CC(C)(NC(=O)[C@@H]2CCCN2C(=O)CCCc2ccc(O)cc2)C(=O)NCCCN)cc1OC.Cl (some centres undefined) | Change | -2
COc1ccc(CC(C)(NC(=O)[C@@H]2CCCN2C(=O)CCCc2ccccc2)C(=O)N[C@@H](CCCN=C(N)N)C(=O)O)cc1OC (some centres undefined) | Change | -1
Cl.NCCCNC(=O)[C@H](Cc1ccccc1)NC(=O)[C@@H]1CCCN1C(=O)CCCc1ccccc1 | Change | 0
CC(Cc1ccccc1)(NC(=O)[C@@H]1CCCN1)C(=O)NCCCN.Cl.Cl (some centres undefined) | Change | -1
CC(CN[C@@H](CCCN=C(N)N)C(=O)O)(Cc1ccccc1)NC(=O)[C@@H]1CCCN1C(=O)CCCc1ccccc1 (some centres undefined) | Change | 0
COc1ccc(CC(C)(NC(=O)[C@@H]2CCCN2C(=O)CCCc2ccc(O)cc2)C(=O)N[C@@H](CCCN=C(N)N)C(=O)O)cc1OC (some centres undefined) | Change | -7.7
CC(Cc1ccccc1)(NC(=O)[C@@H]1CCCN1C(=O)c1ccccc1)C(=O)N[C@@H](CCCN=C(N)N)C(=O)O (some centres undefined) (Bz-Pro-[ξαMeF]-Arg-OH) | Change | 1
CC(Cc1ccc(O)cc1)(NC(=O)[C@@H]1CCCN1C(=O)CCCc1ccc(O)cc1)C(=O)NCC(=O)N1CCC[C@H]1C(=O)O (some centres undefined) ({Butanoyl(4-(4-HOPh))}-P[ξαMeY]GP-OH) | Change | 1
N=C(N)NCCC[C@H](NC[C@H](Cc1ccccc1)NC(=O)[C@@H]1CCCN1)C(=O)O | Change | 0
CC(Cc1ccccc1)(NC(=O)[C@@H]1CCCN1C(=O)c1ccccc1)C(=O)N1CCC[C@H]1C(=O)O (some centres undefined) (Bz-Pro-[ξαMeF]-Pro-OH) | Change | -5
CC(Cc1ccccc1)(NC(=O)[C@@H]1CCCN1C(=O)CCCc1ccc(O)cc1)C(=O)NCCCCCC(=O)O (some centres undefined) | Change | 2
CC(Cc1ccccc1)(NC(=O)[C@@H]1CCCN1C(=O)CCCc1ccc(O)cc1)C(=O)NCC(=O)N1CCC[C@H]1C(=O)O (some centres undefined) ({Butanoyl(4-(4-HOPh))}-P[ξαMeF]GP-OH) | Change | -9
CC(Cc1ccccc1)(NC(=O)[C@@H]1CCCN1C(=O)CCCc1ccc(O)cc1)C(=O)NCCCN.Cl (some centres undefined) | Change | 3
CC(Cc1ccccc1)(NC(=O)[C@@H]1CCCN1C(=O)CCCc1ccccc1)C(=O)N1CCC[C@H]1C(=O)O (some centres undefined) | Change | 0
CC(Cc1ccccc1)(NC(=O)[C@@H]1CCCN1C(=O)CCCc1ccccc1)C(=O)NCCCN.Cl (some centres undefined) | Change | -0.5
N=C(N)NCCC[C@H](NC(=O)[C@@H]1Cc2ccccc2CN1C(=O)CCCc1ccc(O)cc1)C(=O)O | Change | 1
